Would you mind telling me the reported IC50 at 72 h of each entry?
# EXPERIMENTAL_DETAILS: Cytotoxicity test (SRB), A431
# Assay type: cell-based
# PROTOCOL_CONDITIONS: human, A431 skin cancer cells
Answers are plain numbers, in µM.

Field: IC50 at 72 h. Fill in for each record below.
1. Cc1[nH]c(/C=C2\C(=O)Nc3ccc(F)cc32)c(C)c1NC(=O)CCN1CCOCC1
2. CCN(CC)CCS(=O)(=O)Nc1c(C)[nH]c(/C=C2\C(=O)Nc3ccc(F)cc32)c1C

1: 7.59; 2: 8.58

Each compound below has a reported value. Please supply its IC50 at 72 h.
1. CCN(CC)CC(=O)Nc1c(C)[nH]c(/C=C2\C(=O)Nc3cc(C(F)(F)F)ccc32)c1C
2. Cc1[nH]c(/C=C2\C(=O)Nc3ccc(F)cc32)c(C)c1NC(=O)CN1CCCCC1

8.89
6.25
